Assign pIC50 to each entry below.
Biological target: HIV-1 protease (Human immunodeficiency virus type 1 group M subtype B, UniProt P04585)
Construct: Recombinant HIV-1 protease (>96% purity); purchased Bachem Bioscience Inc. (King of Prussia, PA)
Assay: biochemical
Details: 6.0 nM HIV-1 protease, 40 μM substrate III, 37° C., 5 minutes; read-out: Inhib of HIV-Protease IC50
The quantity pIC50 is defined as the negative base-10 logarithm of the molar concentration.

Report pIC50 for CCNS(=O)(=O)Oc1cc(C(C)(C)C)c(SC2=C(O)CC(CCc3ccc(O)cc3)(C3CCCCC3)OC2=O)cc1C (centres unmarked) [Example 8] please.
8.32

Which value of pIC50 has been reported for Cc1cc(SC2=C(O)CC(CCc3ccc(O)cc3)(C3CCCC3)OC2=O)c(C(C)(C)C)cc1CO (centres unmarked) [Example 62] in the records?
8.51

Using the record for Cc1cc(SC2=C(O)CC(CCc3ccc(O)cc3)(C(C)C)OC2=O)c(C(C)(C)C)cc1NS(=O)(=O)c1cccs1 (centres unmarked) [Example 77] , report its pIC50.
8.06

Need pIC50 of CCCCC1(CCc2ccc(O)cc2)CC(O)=C(Sc2cc(C)c(CO)cc2C(C)(C)C)C(=O)O1 (racemic) [Example 7] , thanks.
8.39

Which pIC50 is reported for this compound? Cc1cc(SC2=C(O)CC(CCc3ccc4c(c3)OCO4)(C(C)C)OC2=O)c(C(C)(C)C)cc1CO (centres unmarked) [Example 61]
8.51

# query: pIC50 of entry Cc1cc(SC2=C(O)CC(CCc3ccccc3)(c3ccc(OCCO)cc3)OC2=O)c(C(C)(C)C)cc1OS(=O)(=O)N1CCN(C)CC1 (centres unmarked) [Example 46]
7.92

Any idea what its pIC50 is? The compound is Cc1cc(SC2=C(O)CC(CCc3ccc(O)cc3)(c3ccccc3)OC2=O)c(C(C)(C)C)cc1CO (centres unmarked) [Example 36]
8.80

Field request: pIC50 | item: COc1cc(CCC2(CCc3ccc(O)c(OC)c3)CC(O)=C(Sc3cc(C)c(OCCO)cc3C(C)(C)C)C(=O)O2)ccc1O [Example 23]
8.47

Quick check: pIC50 of Cc1cc(SC2=C(O)CC(CCc3ccc(N)cc3)(c3ccccc3)OC2=O)c(C(C)(C)C)cc1CO (centres unmarked) [Example 15] ?
8.51

Can you look up the measured pIC50 of Cc1cc(SC2=C(O)CC(CCc3ccc(O)cc3)(CCc3ccc(O)cc3)OC2=O)c(C(C)(C)C)cc1CO [Example 14] for me?
8.89

So what's the measured pIC50 for this one? Cc1cc(SC2=C(O)CC(CCc3ccc(O)cc3)(C3CCCCC3)OC2=O)c(C(C)(C)C)cc1O (centres unmarked) [Example 10]
8.54

Please report the recorded pIC50 for Cc1cc(SC2=C(O)CC(C)(CCc3ccc(O)cc3)OC2=O)c(C(C)(C)C)cc1OS(=O)(=O)NC(C)(C)C (racemic) [Example 6] .
8.42

# query: pIC50 of entry Cc1cc(SC2=C(O)CC(CCc3cccc(O)c3)(CCc3cccc(O)c3)OC2=O)c(C(C)(C)C)cc1OS(=O)(=O)N(C)C [Example 22]
8.05

Look up pIC50: Cc1cc(SC2=C(O)CC(C)(CCc3ccc(O)cc3)OC2=O)c(C(C)(C)C)cc1OCCO (racemic) [Example 1]
8.17

Which pIC50 is listed for Cc1cc(SC2=C(O)CC(CCc3ccc(O)cc3)(C(C)C)OC2=O)c(C(C)(C)C)cc1NC(=S)N1CCNCC1 (centres unmarked) [Example 83] ?
7.39

Query: pIC50; subject: Cc1cc(SC2=C(O)CC(CCc3cccc(O)c3)(C3CCCC3)OC2=O)c(C(C)(C)C)cc1CO (centres unmarked) [Example 39]
8.72

Please report the recorded pIC50 for Cc1ccc(C(C)(C)C)c(SC2=C(O)CC(CCc3ccccc3)(CCc3ccccc3)OC2=O)c1 [Ref A, reference compound] .
6.82
